Values were extracted from patent US10668079B2.

Give ED50 for every item shown.
# Tested on: ATCC43069 (Neisseria gonorrhoeae)
# Measurement description: In vivo antibacterial test (animal protection test, septicemia mouse model)
# Experimental conditions: ATCC43069, sc, strain ATCC 43069, samples at 0th month of the stability test, ICR mice, subcutaneous immediately and after 6 hours, 7 days observation
Counter-ions that a name gives are not always drawn.
State the result as a value with its unit after it.

The reported ED50 of the compound CN[C@@H]1[C@H](O)[C@H](NC)[C@H]2O[C@@]3(O)C(=O)C[C@@H](C)O[C@H]3O[C@@H]2[C@H]1O [Spectinomycin Hydrochloride, spectinomycin hydrochloride] was 19 mg/kg

The reported ED50 of the compound CC[C@H]1OC(=O)[C@H](C)[C@@H](O[C@H]2C[C@@](C)(OC)[C@@H](O)[C@H](C)O2)[C@H](C)[C@@H](O[C@@H]2O[C@H](C)C[C@H](N(C)C)[C@H]2O)[C@](C)(O)C[C@@H](C)CN(C)[C@H](C)[C@@H](O)[C@]1(C)O was 24 mg/kg

The reported ED50 of the compound C[C@H]1c2cccc(O)c2C(=O)C2=C(O)[C@]3(O)C(=O)C(C(N)=O)=C(O)[C@@H](N(C)C)[C@@H]3[C@@H](O)[C@@H]21 [Doxycycline Hydrochloride, doxycycline hydrochloride] was 37 mg/kg

The reported ED50 of the compound CO/N=C(\C(=O)N[C@@H]1C(=O)N2C(C(=O)O)=C(CSc3nc(=O)c(=O)[nH]n3C)CS[C@H]12)c1csc(N)n1 [Ceftriaxone Sodium, ceftriaxone sodium] was 16 mg/kg

The reported ED50 of the compound C[C@H]1COc2c(N3CCN(C)CC3)c(F)cc3c(=O)c(C(=O)O)cn1c23 [Levofloxacin Hydrochloride, levofloxacin hydrochloride] was 25 mg/kg

====

# System: PP-R (β-lactam-resistant Neisseria gonorrhoeae)
# Measurement description: In vivo antibacterial test (animal protection test, septicemia mouse model)
# Experimental conditions: sc, strain PP-R, samples at 30th month of the stability test (control drugs: batch purchased at 30th month), ICR mice, subcutaneous
Structures can show the parent of a compound that is named as a salt.
Measurement type: ED50 (mg/kg)
Write it as a number; the unit mg/kg goes unstated.

The reported ED50 of the molecule CC[C@H]1OC(=O)[C@H](C)[C@@H](O[C@H]2C[C@@](C)(OC)[C@@H](O)[C@H](C)O2)[C@H](C)[C@@H](O[C@@H]2O[C@H](C)C[C@H](N(C)C)[C@H]2O)[C@](C)(O)C[C@@H](C)CN(C)[C@H](C)[C@@H](O)[C@]1(C)O was 55

The reported ED50 of the molecule CN[C@@H]1[C@H](O)[C@H](NC)[C@H]2O[C@@]3(O)C(=O)C[C@@H](C)O[C@H]3O[C@@H]2[C@H]1O [Spectinomycin Hydrochloride, spectinomycin hydrochloride] was 67

The reported ED50 of the molecule C[C@H]1c2cccc(O)c2C(=O)C2=C(O)[C@]3(O)C(=O)C(C(N)=O)=C(O)[C@@H](N(C)C)[C@@H]3[C@@H](O)[C@@H]21 [Doxycycline Hydrochloride, doxycycline hydrochloride] was 47

The reported ED50 of the molecule CO/N=C(\C(=O)N[C@@H]1C(=O)N2C(C(=O)O)=C(CSc3nc(=O)c(=O)[nH]n3C)CS[C@H]12)c1csc(N)n1 [Ceftriaxone Sodium, ceftriaxone sodium] was 224

The reported ED50 of the molecule C[C@H]1COc2c(N3CCN(C)CC3)c(F)cc3c(=O)c(C(=O)O)cn1c23 [Levofloxacin Hydrochloride, levofloxacin hydrochloride] was 42

====

Give ED50 for every item shown.
# Tested on: T-R (tetracycline-resistant Neisseria gonorrhoeae)
# Measurement description: In vivo antibacterial test (animal protection test, septicemia mouse model)
# Experimental conditions: sc, strain T-R, samples at 30th month of the stability test (control drugs: batch purchased at 30th month), ICR mice, subcutaneous
Counter-ions that a name gives are not always drawn.
Write it as a number; the unit mg/kg goes unstated.

The reported ED50 of the compound CN[C@@H]1[C@H](O)[C@H](NC)[C@H]2O[C@@]3(O)C(=O)C[C@@H](C)O[C@H]3O[C@@H]2[C@H]1O [Spectinomycin Hydrochloride, spectinomycin hydrochloride] was 68

The reported ED50 of the compound C[C@H]1COc2c(N3CCN(C)CC3)c(F)cc3c(=O)c(C(=O)O)cn1c23 [Levofloxacin Hydrochloride, levofloxacin hydrochloride] was 43

The reported ED50 of the compound C[C@H]1c2cccc(O)c2C(=O)C2=C(O)[C@]3(O)C(=O)C(C(N)=O)=C(O)[C@@H](N(C)C)[C@@H]3[C@@H](O)[C@@H]21 [Doxycycline Hydrochloride, doxycycline hydrochloride] was 432

The reported ED50 of the compound CO/N=C(\C(=O)N[C@@H]1C(=O)N2C(C(=O)O)=C(CSc3nc(=O)c(=O)[nH]n3C)CS[C@H]12)c1csc(N)n1 [Ceftriaxone Sodium, ceftriaxone sodium] was 57

The reported ED50 of the compound CC[C@H]1OC(=O)[C@H](C)[C@@H](O[C@H]2C[C@@](C)(OC)[C@@H](O)[C@H](C)O2)[C@H](C)[C@@H](O[C@@H]2O[C@H](C)C[C@H](N(C)C)[C@H]2O)[C@](C)(O)C[C@@H](C)CN(C)[C@H](C)[C@@H](O)[C@]1(C)O [Azithromycin, azithromycin] was 59

====

# Tested on: Q-R (quinolone-resistant Neisseria gonorrhoeae)
# Measurement description: In vivo antibacterial test (animal protection test, septicemia mouse model)
# Experimental conditions: sc, strain Q-R, samples at 30th month of the stability test (control drugs: batch purchased at 30th month), ICR mice, subcutaneous
Where a name gives a salt, the structure may show the parent alone.
Measurement type: ED50 (mg/kg)
Write it as a number; the unit mg/kg goes unstated.

The reported ED50 of the molecule C[C@H]1c2cccc(O)c2C(=O)C2=C(O)[C@]3(O)C(=O)C(C(N)=O)=C(O)[C@@H](N(C)C)[C@@H]3[C@@H](O)[C@@H]21 [Doxycycline Hydrochloride, doxycycline hydrochloride] was 51

The reported ED50 of the molecule C[C@H]1COc2c(N3CCN(C)CC3)c(F)cc3c(=O)c(C(=O)O)cn1c23 [Levofloxacin Hydrochloride, levofloxacin hydrochloride] was 564

The reported ED50 of the molecule CN[C@@H]1[C@H](O)[C@H](NC)[C@H]2O[C@@]3(O)C(=O)C[C@@H](C)O[C@H]3O[C@@H]2[C@H]1O [Spectinomycin Hydrochloride, spectinomycin hydrochloride] was 42

The reported ED50 of the molecule CC[C@H]1OC(=O)[C@H](C)[C@@H](O[C@H]2C[C@@](C)(OC)[C@@H](O)[C@H](C)O2)[C@H](C)[C@@H](O[C@@H]2O[C@H](C)C[C@H](N(C)C)[C@H]2O)[C@](C)(O)C[C@@H](C)CN(C)[C@H](C)[C@@H](O)[C@]1(C)O was 40

The reported ED50 of the molecule CO/N=C(\C(=O)N[C@@H]1C(=O)N2C(C(=O)O)=C(CSc3nc(=O)c(=O)[nH]n3C)CS[C@H]12)c1csc(N)n1 [Ceftriaxone Sodium, ceftriaxone sodium] was 30

====

Give ED50 for every item shown.
# Test system: PP-R (β-lactam-resistant Neisseria gonorrhoeae)
# Measurement description: In vivo antibacterial test (animal protection test, septicemia mouse model)
# Experimental conditions: sc, strain PP-R, samples at 0th month of the stability test, ICR mice, subcutaneous immediately and after 6 hours, 7 days observation
Counter-ions that a name gives are not always drawn.
Write it as a number; the unit mg/kg goes unstated.

The reported ED50 of the molecule C[C@H]1COc2c(N3CCN(C)CC3)c(F)cc3c(=O)c(C(=O)O)cn1c23 [Levofloxacin Hydrochloride, levofloxacin hydrochloride] was 37

The reported ED50 of the molecule CN[C@@H]1[C@H](O)[C@H](NC)[C@H]2O[C@@]3(O)C(=O)C[C@@H](C)O[C@H]3O[C@@H]2[C@H]1O [Spectinomycin Hydrochloride, spectinomycin hydrochloride] was 56

The reported ED50 of the molecule CC[C@H]1OC(=O)[C@H](C)[C@@H](O[C@H]2C[C@@](C)(OC)[C@@H](O)[C@H](C)O2)[C@H](C)[C@@H](O[C@@H]2O[C@H](C)C[C@H](N(C)C)[C@H]2O)[C@](C)(O)C[C@@H](C)CN(C)[C@H](C)[C@@H](O)[C@]1(C)O was 49

The reported ED50 of the molecule C[C@H]1c2cccc(O)c2C(=O)C2=C(O)[C@]3(O)C(=O)C(C(N)=O)=C(O)[C@@H](N(C)C)[C@@H]3[C@@H](O)[C@@H]21 [Doxycycline Hydrochloride, doxycycline hydrochloride] was 52

The reported ED50 of the molecule CO/N=C(\C(=O)N[C@@H]1C(=O)N2C(C(=O)O)=C(CSc3nc(=O)c(=O)[nH]n3C)CS[C@H]12)c1csc(N)n1 [Ceftriaxone Sodium, ceftriaxone sodium] was 208
